These entries and their values trace back to ChEMBL document CHEMBL3045423.

Reported EC50 values are given for each entry in this list.
- Test system: Verticillium dahliae
- assay overview: Antifungal activity against Verticillium dahliae assessed as mycelial growth inhibition after 4 to 8 days
- Type: functional
- condition context: read-out: ED50 (the source's name)

Worked cases, answers included:
Cc1cc(O)c2c(c1O)C(=O)c1c(O)ccc(O)c1C2=O: 11.5 µg/mL
Cc1cc(O)c2c(c1)C(=O)c1cccc(O)c1C2=O: > 100 µg/mL
O=C1c2ccccc2C(=O)c2ccccc21: > 100 µg/mL

// below: EC50 requested for another compound
Returns the measured EC50 for the input compound. Input: Cc1cc(O)c2c(c1)C(=O)c1cc(O)cc(O)c1C2=O
> 100 µg/mL
